Biological target: T1, Band 3 / glycophorin A (Wright b, Wrb epitope) on human red blood cells (human, UniProt P02724 20-150)
T1 construct: whole, on cells; also called Band3/GPA; AE1
T1 sequence 1: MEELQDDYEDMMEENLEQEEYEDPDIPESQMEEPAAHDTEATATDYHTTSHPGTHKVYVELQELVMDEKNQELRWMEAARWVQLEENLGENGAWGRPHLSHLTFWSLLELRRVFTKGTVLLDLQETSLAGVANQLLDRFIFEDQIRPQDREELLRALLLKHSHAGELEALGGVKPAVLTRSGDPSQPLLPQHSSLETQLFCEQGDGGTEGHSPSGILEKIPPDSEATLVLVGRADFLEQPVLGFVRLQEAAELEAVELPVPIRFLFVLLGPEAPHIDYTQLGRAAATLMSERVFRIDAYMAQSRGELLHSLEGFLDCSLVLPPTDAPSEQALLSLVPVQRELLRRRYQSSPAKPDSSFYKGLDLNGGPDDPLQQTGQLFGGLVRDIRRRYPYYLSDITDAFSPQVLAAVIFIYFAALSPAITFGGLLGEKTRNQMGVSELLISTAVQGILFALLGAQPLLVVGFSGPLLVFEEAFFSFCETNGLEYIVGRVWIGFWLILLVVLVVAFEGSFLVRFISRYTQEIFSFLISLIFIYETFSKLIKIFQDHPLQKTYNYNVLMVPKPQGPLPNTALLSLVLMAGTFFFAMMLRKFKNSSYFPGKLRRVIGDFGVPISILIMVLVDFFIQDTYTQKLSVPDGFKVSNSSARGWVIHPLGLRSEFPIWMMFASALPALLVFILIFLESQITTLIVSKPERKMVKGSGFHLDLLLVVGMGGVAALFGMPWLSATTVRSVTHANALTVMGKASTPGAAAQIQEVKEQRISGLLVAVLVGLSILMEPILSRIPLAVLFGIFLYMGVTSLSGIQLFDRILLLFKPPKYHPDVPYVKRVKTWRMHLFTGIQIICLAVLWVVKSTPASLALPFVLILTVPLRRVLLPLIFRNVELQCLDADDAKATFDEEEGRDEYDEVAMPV
T1 sequence 2: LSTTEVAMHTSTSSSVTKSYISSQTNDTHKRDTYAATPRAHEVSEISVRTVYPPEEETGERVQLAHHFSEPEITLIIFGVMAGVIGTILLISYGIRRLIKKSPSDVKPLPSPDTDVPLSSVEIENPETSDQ
Experiment: Fab/phage binding assays on human RBCs incl. rare RBC types lacking conserved antigens
Description: An IgG Fab/phage display library was prepared from the peripheral blood lymphocytes of a hyperimmunized macaque using homologous human V-region oligonucleotides (Siegel D L, R. M., Lee H, Blancher A., Production of large repertories of macaque mAbs to human RBCs using phage display. Transfusion, 1999. 39(S10): p. 92S, which is incorporated herein by reference). Fab/phage specific for human RBCs were isolated by panning on intact human RBCs. […]
measurement type: binding result

Worked cases, binding result given:
binding result for KP2-04 Fab/phage clone (anti-Band 3, Wrb) (Fab, V domains shown) VH: EVQLLESGPGLVKPSETLSLTCAVSGYSLSSAYGWNWIRQSPGKGLEWIGSIGGSRDNVNYNPSLKRRVTISKDTSTNHFSLRLSSVTAADTAVYYCVRRATYGNSYFDSWGQGVQVTVSS VL: ELTLTQSPATLSLSPGETATLSCRASQSVGSHLAWYQQKPGQAPKLLVHSAYFRATGIPDRFSGSGSRTDFTLTISSLEPEDVGVYHCQQYNDLLPLTFGGGTKVEIK ? binds

binding result for KP3-09 Fab/phage clone (anti-Band 3, Wrb) (Fab, V domains shown) VH: EVQLLESGPGLVKPSETLSLTCAVSSLSLSSGFAWSWIRQPPGEGLEWIGSIGGSRDNVNYNPSLKSRVTISKDTSKNQFSLRLRSVTAADTAVYYCVTIHGYRNWYLDHWGQGVLVTVST VL: AAELTQSPAILSLSPGETATLSCRASQSIGTSLAWYQQKPGQAPKLLVHSAYYRATDIPERFSGSGSRTDFTLTISSLEPEDVGVYHCQQYNDLLPLTFGGGTKVEIK ? binds

binding result for KP3-02 Fab/phage clone (anti-Band 3, Wrb) (Fab, V domains shown) VH: EVQLLESGPGLVRPSETLSLTCAVSGYSISSGYGWHWIRQPPGKGLESLGYIGGSRGNTNYNPSLKSRVTISTDTSKNQFSLKLRSVTAADTAVYYCARDSGYNTRYFDYWGQGVLVTVSS VL: AAELTQSPATLSLSPGETATLSCRASQSVGSNLAWYQQKPGQAPKLLVHSAYFRATGIPDRFSGSGSRTDFTLTISSLEPEDVGVYHCQQYNDLLPLTFGGGTKVEIK ? binds

binding result for KP3-19 Fab/phage clone (anti-Band 3, Wrb) (Fab, V domains shown) VH: EVQLLESGPGLVKPSETLSLTCAVSGGSLSGGYDWYWIRQSPRKGLEYIGYIYDSRGTTNYNPSLKNRVTISIDTSKNHFSLNLKSVTAADTAVYYCARRVGYGATYFDLWGQGVLVTVSS VL: ELVMTQSPATLSLSPGETATLSCRASQSVGSNLAWYQQKPGQAPKLLVHSANFRATGISDRFSGSGSRTDFTLTISSLEPEDVGVYHCQQYNDLLPLTFGGGTKVEIK ? binds

binding result for KP3-13 Fab/phage clone (anti-Band 3, Wrb) (Fab, V domains shown) VH: EVQLLESGPGLVRPSETLSLTCAVSGGSLSGGYDWSWIRQSPRKGLEWIGYIYDSRGTTNYNPSLKRRVTISIDTSKNQFSLNLKSVTAADTAVYYCARRGGYGASYFDLWGQGVLVTVSS VL: AAELTQSPATLSLSPGETATLSCRASQSVGSNLAWYQQKPGQAPKLLVHSASVRATGIPDRFSGSGSRTDFTLTISSLEPEDVGVYHCQQYNDFFPLTFGGGTKVEIK ? binds

Continuing:
binding result for KP2-13 Fab/phage clone (anti-Band 3, Wrb) (Fab, V domains shown) VH: EVQLLESGPGLVKPSETLSLTCAVSGGSISGGYDWSWIRQSPGKGLEWIGYIYDSRGTTNYNPSLRKRVAISIDTSRNQFSLNLRSLTAADTAVYYCARRAGYGSAYFDYWGQGVLVTVSS VL: AAELTQSPATLSLAPGETATLSCRASQSIGTNLAWYHQKPGQPPKLLVHTAYVRATGIPNRFSGSGSRTDFTLTINSLQPEDVGVYHCQQYNDLLPLTFGGGTKIDIK ? binds

binding result for KP2-11 Fab/phage clone (anti-Band 3, Wrb) (Fab, V domains shown) VH: EVQLQLPGPGLVKPSETLSLTCTVSGSSLSSAYGWNWIRQPPGKGLEWIGSIGGSRDNTNYNPSLKRRVTISKDTSKNQFSLKLKSVTAADTAVYYCAQRGAYGYSYFDYWGQGVLVAVSS VL: ELTLTQSPATLSLSPGETATLSCRASQSLGSRLAWYQQKPGQPPRLLIYGASTRATGIPDRFSGSGSRTDFTLTISSLEPEDVGVYHCQQYNDFPPLTFGGGTKVEIK ? binds

binding result for KP2-02 Fab/phage clone (anti-Band 3, Wrb) (Fab, V domains shown) VH: EVQLLESGPGLVKPSETLSLTCAVSGGSLSGGYDWSWIRQSSRKGLEWIGYIYDSRWTTNYNPSLKKRVTISIDTSKNQFSLNLKSVTAADTAVYYCARRGGYGASYFDLWGQGVLVTVSS VL: AAELTQSPATLSLFPGETATLSCRASQSIGSHLAWYQQKPGQAPKLLVHSVSFRATGIPDRFRGSGSRTDFTLTISSLEPEDVGVYHCQQYNDLLPLTFGGGTKVEIK ? binds

binding result for KP2-06 Fab/phage clone (anti-Band 3, Wrb) (Fab, V domains shown) VH: EVQLLESGPGLVKPSETLSLTCTVSGSSLSSAYGWNWIRQPPGKGLEWIGSIGGSRDNTNYNPSLKRRVTISKDTSKNQFSLKLKSVTAADTAVYYCAQRGAYGYSYFDYWGQGVLVAVSS VL: AAELTQSPATLSLSPGETATLSCRASQSVGSSLAWYQQKPGQAPKLLVHSISVRATGIPDRFSGSGSRTDFTLTITSLEPEDVGVYHCQQYNDFFPLTFGGGTKVEIK ? binds

binding result for KP3-20 Fab/phage clone (anti-Band 3, Wrb) (Fab, V domains shown) VH: EVQLLESGPGLVKPSETLSLTCAVSGYSISSGFAWNWIRQTPGKGLEWIGYIGGSRDNTNYNPSLKSRVTISKDTSKNQFSLKLTSMTAADTAMYYCARRGAYGNSYFDFWGQGVPVTVSS VL: AAELTQSPATLSLSPGETATLSCRASQSVGSNVAWYQQKPGQAPKLLVHSAYYRATGIPDRFSGSGSRTDFTLTISSLEPEDVGVYHCQQYNDLLPLTFGGGTKVEIK ? binds

Values compiled from patent US20210171652A1.
